tested on: C57BL/6 J mice; assay: Head-twitch response (HTR) dose-response in mice, 30-min session; assay type: in vivo, mouse; conditions: 0.1 mg/kg s.c.; mean ± SEM
For each entry below, report its HTR (count/30 min) value.
A number alone suffices; assume count.

Prompt: Which HTR (count/30 min) reading was recorded for the compound CCCc1cc(OC)c(CC(C)N)cc1OC.Cl (centres unmarked) ?
Completion: 22.7

Prompt: Next entry: COc1cc(CC(C)N)c(OC)cc1C (centres unmarked)
Completion: 23.4

Prompt: Next entry: CCCCCc1cc(OC)c(CC(C)N)cc1OC (centres unmarked)
Completion: 6.2

Prompt: Next entry: CCCCc1cc(OC)c(CC(C)N)cc1OC (centres unmarked)
Completion: 9.0

Prompt: Next entry: COc1ccc(OC)c(CC(C)N)c1.Cl (centres unmarked) [2,5-DMA, 2,5-Dimethoxyamphetamine hydrochloride]
Completion: 6.7
